// provenance: patent US8952024B2

System: corn (Zea mays)
assay-info: Test B pre-/postemergence plant response
Type: in vivo
conditions-used: Postemergence; 62 g ai/ha; scale 0 to 100 (0 no effect, 100 complete control)
observation-type: Plant response rating, Corn
Numbers only.

Worked cases, Plant response rating, Corn given:
CCc1cccc(-n2c(-c3ccccc3)ncc(C(=O)C3=C(O)CCCC3=O)c2=O)c1 [Compound 220] = 50
CCn1c(-c2cccc(F)c2)ncc(C(=O)C2=C(O)C3CCC(C3)C2=O)c1=O (stereo not shown) [Compound 236] = 60
CCCn1c(-c2ccccc2)ncc(C(=O)C2=C(O)C3CCC(C3)C2=O)c1=O (stereo not shown) [Compound 226] = 80

Plant response rating, Corn in this record for COCCCn1c(-c2cc(F)cc(F)c2)ncc(C(=O)C2=C(O)C3CCC(C3)C2=O)c1=O (stereo not shown) [Compound 244] : 90

----------
For each of the compounds below, state its Plant response rating, Soybean.
Test system: soybean (Glycine max)
assay-info: Test B pre-/postemergence plant response
Format: in vivo
conditions-used: 250 g ai/ha, Preemergence, 0 to 100 scale
Give bare numbers.

Worked cases, Plant response rating, Soybean given:
Cc1ccc(F)c(-n2c(-c3ccccc3)ncc(C(=O)C3=C(O)CCCC3=O)c2=O)c1 = 85
Cc1cccc(-n2c(-c3cccc(Cl)c3)ncc(C(=O)C3=C(O)CCCC3=O)c2=O)c1 = 0
Cc1ccc(-n2c(-c3cccc(Cl)c3)ncc(C(=O)C3=C(O)CCCC3=O)c2=O)cc1 = 0
O=C1CCCC([O-])=C1C(=O)c1cnc(-c2ccccc2)n(-c2ccccc2)c1=O.[K+] = 85

Read the next record carefully.
Plant response rating, Soybean in this record for Cc1cc(F)ccc1-n1c(-c2ccccc2)ncc(C(=O)C2=C(O)CCCC2=O)c1=O : 20

----------
For each of the compounds below, state its Plant response rating, Cupgrass, Woolly.
System: woolly cupgrass (Eriochloa villosa)
assay-info: Test B pre-/postemergence plant response
Format: in vivo
conditions-used: 250 g ai/ha, Preemergence, 0 to 100 scale

Worked cases, Plant response rating, Cupgrass, Woolly given:
CCn1c(-c2ccccc2)ncc(C(=O)C2=C(O)CCCC2=O)c1=O = 20
Cc1ccc(Cl)cc1-n1c(-c2ccccc2)ncc(C(=O)C2=C(O)CCCC2=O)c1=O = 80
Cc1ccc(F)c(-n2c(-c3ccccc3)ncc(C(=O)C3=C(O)CCCC3=O)c2=O)c1 = 85

Read the next record carefully.
Plant response rating, Cupgrass, Woolly in this record for O=C1CCCC(O)=C1C(=O)c1cnc(-c2ccccc2)n(-c2ccccc2Br)c1=O : 70

----------
System: pigweed (Amaranthus retroflexus)
assay-info: Test A pre-/postemergence plant response
Format: in vivo
conditions-used: Preemergence, 500 g ai/ha; 0 to 100 scale, 0 = no effect, 100 = complete control
For each of the compounds below, state its Plant response rating, Pigweed.
Give bare numbers.

Worked cases, Plant response rating, Pigweed given:
O=C1CCCC(O)=C1C(=O)c1cnc(-c2ccccc2)n(C2CC[S+]([O-])CC2)c1=O (mixture of isomers) = 50
COCCCn1c(-c2cc(F)cc(F)c2)ncc(C(=O)C2=C(O)C3CCC(C3)C2=O)c1=O (centres unmarked) = 100
CCCn1c(-c2cccc(C)c2)ncc(C(=O)C2=C(O)CCCC2=O)c1=O = 100
COc1ccc(-n2c(-c3cccc(Br)c3)ncc(C(=O)C3=C(O)CCCC3=O)c2=O)cc1 = 100
CCCn1c(-c2ccco2)ncc(C(=O)C2=C(O)C3CCC(C3)C2=O)c1=O (centres unmarked) = 80
O=C(C1=C(O)C2CCC(C2)C1=O)c1cnc(-c2cc(F)cc(F)c2)n(-c2ccccc2)c1=O (centres unmarked) = 100
CCOCCn1c(-c2cc(F)cc(F)c2)ncc(C(=O)C2=C(O)CCCC2=O)c1=O = 100

Read the next record carefully.
Plant response rating, Pigweed in this record for CCCn1c(-c2ccc3c(c2)OCCO3)ncc(C(=O)C2=C(O)C3CCC(C3)C2=O)c1=O (centres unmarked) : 50
